- assay-summary: NCI Yeast Anticancer Drug Screen. Data for the cln2 rad14 strain (AID 165);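 note: 0% = growth equal to vehicle treated cultures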
- condition-context: S. cerevisiae cln2 rad14 strain, at 50.0 µM
Compounds without any hit were thinned out: in the full panel of roughly 79,000, 15% have a hit. The source made the active and inactive calls. Cut-off read from the data, not from the text of the source: active = growth inhibition above about 70%; inactive = the rest.
I would appreciate it if you answered using one of these outcomes: active, inactive

compound	classification
Clc1ccc2c(c1)nnn1nccc21	inactive

Fill in: this test's call for Nc1ncnc2c1nnn2C1C=CC(CP(=O)(O)O)C1 (centres undefined) is ___
inactive

Fill in: this test's call for `NC(=O)N/N=C/c1ccncc1` is ___
inactive

Fill in: this test's call for `CC(C)(C)OC(=O)N/N=C(/N)Cc1ccc(Cl)cc1` is ___
inactive

Fill in: this test's call for NC1(c2ccccc2)CON=C(c2ccccc2)C1 (centres undefined) is ___
inactive

Fill in: this test's call for `Cc1ccc(S(=O)(=O)OCCN2C(=O)CCC2=O)cc1` is ___
inactive

Fill in: this test's call for `CC(C)(OC(=O)Nc1ccccc1)c1ccc([N+](=O)[O-])cc1` is ___
inactive

Fill in: this test's call for `COc1cccc(NC(=O)c2cccc(C(=O)Nc3cccc(OC)c3)c2)c1` is ___
inactive

Fill in: this test's call for `CCOC(=O)c1[nH]c(CC(=O)O)c(C(=O)OCC)c1C` is ___
inactive

Fill in: this test's call for CC(=O)OCC(OC(C)=O)C(OC(C)=O)C(OC(C)=O)C(S)S (centres undefined) is ___
inactive

Fill in: this test's call for `CCCC/C(C)=N/NC(N)=S` is ___
inactive

* * *

- assay-summary: NCI Yeast Anticancer Drug Screen. Data for the mlh1 rad18 strain (AID 175)
- condition-context: S. cerevisiae mlh1 rad18 strain growth inhibition; at 50.0 µM; active compounds read high
About 79,000 compounds went through this panel and 15% of them were active in at least one assay; those are over-represented in the sample as a whole. Where a SMILES comes first, the peptide text is derived from it. The star is where a group is joined. Boc = CC(C)(C)OC(=O)*; OBn = c1ccc(CO*)cc1
A collection of compounds and their measured growth inhibition
Just the number in %, nothing appended.

Quick one: give measured growth inhibition for Clc1ccc(C2ON=C(c3ccccc3)N2C23CC4CC(CC(C4)C2)C3)c(Cl)c1 (stereo not drawn)
-21.5

Quick one: give measured growth inhibition for `O=C1c2ccccc2C(=O)N1/N=[N+](\[O-])N1Cc2ccccc2C1`
28.2

Quick one: give measured growth inhibition for `Cc1c(O)cc(O)c(C=O)c1C`
3.1

Quick one: give measured growth inhibition for `CCCCS/C=C\SCCCC`
-1.65

Quick one: give measured growth inhibition for CC(=O)NC(CSCC(=O)c1ccccc1)C(=O)O (stereo not drawn)
-3.5

Quick one: give measured growth inhibition for `Nc1cccc(C(CC(=O)O)CC(=O)O)c1`
15.8

Quick one: give measured growth inhibition for `C=CCOCCC(OCC=C)OCC=C`
8.85

Quick one: give measured growth inhibition for `CCN(CC)c1ccc(N=C2C=CC(=O)C(NC(C)=O)=C2)c(C)c1`
13.3

Quick one: give measured growth inhibition for `N#CC1(C#N)C(CCl)C1(C#N)C#N`
-8.6

Quick one: give measured growth inhibition for `COc1ccc(OC)c(NC(=O)CCC/C(CC(=O)c2ccc(O)c(OC)c2)=N\Nc2ccc([N+](=O)[O-])cc2)c1`
-25.6

Quick one: give measured growth inhibition for `CC=C(c1ccc(OC)cc1)c1ccc(OC)cc1`
-4.5

Quick one: give measured growth inhibition for CC(C)CC(NC(=O)OC(C)(C)C)C(=O)NC(CC(=O)OCc1ccccc1)C(=O)OCc1ccccc1 (stereo not drawn) (Boc-Leu-Asp(OBn)-OBn; configuration not given here)
33.5

Quick one: give measured growth inhibition for `O=C1N[C@H](Cc2cnc[nH]2)C(=O)N2CCC[C@@H]12`
23.7

Quick one: give measured growth inhibition for `CC1(C)N=C(N)N=C(N)N1c1cccc(CSc2ccccc2)c1`
-19.6

Quick one: give measured growth inhibition for `CCCCCOC(=O)c1cc2ccccc2cc1O`
-7.8

Quick one: give measured growth inhibition for `CCCS(=O)(=O)N(CC)CC`
-15.4
